- Tested on: CT26.WT
- test name: Antiproliferative activity against mouse CT26.WT cells assessed as reduction in cell proliferation incubated for 48 hrs by MTT assay
- Type: functional, cell-based
measured attribute: pIC50
Give bare numbers, as −log10 of the molar value.

compound	target desc	reported value
O=C(NCCc1ccc(O)cc1)c1ccccc1Nc1ccccc1	CT26.WT	4.17

Please go through the list and note pIC50 for each compound.
1. O=C(NCc1ccc(O)cc1)c1ccccc1Nc1cccc(Cl)c1
2. Cc1ccc(Cl)c(Nc2ccccc2C(=O)NCc2ccc(O)cc2)c1Cl
3. CC[C@@]1(O)C(=O)OCc2c1cc1n(c2=O)Cc2cc3ccccc3nc2-1 [CAMPTOTHECIN]
4. Cc1c(Cl)cccc1Nc1ccccc1C(=O)NCc1cccc(O)c1

*A*
1: 4.42; 2: 4.08; 3: 6.37; 4: 5.07
